B1: TRIM63 (parent)
chain: ANPYWTSRGSSVSMSGGRFRCPTC

variants of: B1; test: protein stability index of a GFP-peptide fusion (GPS, HEK-293T) (PSI 1-6); higher = more stable; conditions: c terminus: a fixed tail appended;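 also: lentivirally expressed fusions sorted by FACS into six bins by GFP to DsRed ratio, PSI derived from sequencing read proportions per bin multiplied by bin number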
// label = met if protein stability index is not less than 2, otherwise not met

Example cases with answers are listed next.
- sequence_entry: "ANPYWTSRGSSVAMSGGRFRCPTC [S13A]"
  group_label: "not met"
- sequence_entry: "ANPYWTSRGSSVSMSGGRFMCPTC [R20M]"
  group_label: "met"
- sequence_entry: "ANPYWTSRGSSVSMNGGRFRCPTC [S15N]"
  group_label: "not met"
- sequence_entry: "ANPYWTSRGSSVSMIGGRFRCPTC [S15I]"
  group_label: "not met"
- sequence_entry: "ANPYWTSRGSSVSMSGSRFRCPTC [G17S]"
  group_label: "met"

protein stability index >= 2 for ANPYWTSRGSSVSMSWGRFRCPTC [G16W] ?
not met

// query: ANPYWTSRGSSMSMSGGRFRCPTC [V12M]
not met

// query: ANPYWTSRGSSESMSGGRFRCPTC [V12E]
met

What do you have for ANPYWTSRGPSVSMSGGRFRCPTC [S10P] ?
not met

Then this variant: ANPYWTSRGSSVSMSGGRIRCPTC [F19I]
met

Also ANPYWTSPGSSVSMSGGRFRCPTC [R8P] , if possible.
not met
